Experiment: Acute single dose toxicity study in mice, oral administration
Conditions: both sexes, Balb/c, mouse, in vivo
Reported metric: LD50 at 7 days (mg/kg)
Field format: number, assumed mg/kg, no unit text.

# input What LD50 at 7 days value was documented for this molecule, COC(=O)[C@]1(O)C[C@@H]2O[C@@]1(C)n1c3ccccc3c3c4c(c5c6ccccc6n2c5c31)C(=O)NC4 [Compound K-252a, K-252a] ?
# output 78

====

Experiment: PK study in mice, single dermal administration
Format: in vivo
Settings: male, Balb/c, mouse, topical or ocular, 10 umol/kg; single dermal, plasma
Reported metric: Cmax (nM)
Field format: number, assumed nM, no unit text.

# input What Cmax value was documented for this compound, COC(=O)[C@]1(O)C[C@@H]2O[C@@]1(C)n1c3ccccc3c3c4c(c5c6ccccc6n2c5c31)C(=O)NC4 [Compound K-252a, K-252a] ?
# output 908

====

Assay: PK study in mice, repeated dermal administration
Type: in vivo
Details: male, Balb/c, mouse, plasma, topical, 1.03 mg/kg, repeated dermal QD for 5 days, 1.03 mg/kg (about 2 μmol/kg), t = 3 h after last administration
Reported metric: concentration at 3 h (nM)
Field format: number, assumed nM, no unit text.

# input What concentration at 3 h value was documented for this molecule, COC(=O)[C@]1(O)C[C@@H]2O[C@@]1(C)n1c3ccccc3c3c4c(c5c6ccccc6n2c5c31)C(=O)NC4 [Compound K-252a, K-252a] ?
# output 110

====

Assay: Acute single dose toxicity study in mice, intraperitoneal route
Format: in vivo
Conditions: Balb/c, mouse, in vivo, ip; male mice, single dose intraperitoneal; read-out: LD50
Reported metric: LD50 at 7 days (mg/kg)
Field format: number, assumed mg/kg, no unit text.

# input What LD50 at 7 days value was documented for this molecule, COC(=O)[C@]1(O)C[C@@H]2O[C@@]1(C)n1c3ccccc3c3c4c(c5c6ccccc6n2c5c31)C(=O)NC4 [Compound K-252a, K-252a] ?
# output 37.7

====

Assay: PK study in mice, single dermal administration
Assay type: in vivo
Conditions: male, Balb/c, mouse, topical or ocular, 10 umol/kg; single dermal, plasma
Reported metric: Tmax (h)
Field format: number, assumed h, no unit text.

# input What Tmax value was documented for this molecule, COC(=O)[C@]1(O)C[C@@H]2O[C@@]1(C)n1c3ccccc3c3c4c(c5c6ccccc6n2c5c31)C(=O)NC4 [Compound K-252a, K-252a] ?
# output 3

====

Assay: PK study in mice, single dermal administration
Type: in vivo
Conditions: male, Balb/c, mouse, topical or ocular, 10 umol/kg; single dermal, 10 μmol/kg, plasma; read-out: Terminal T1/2
Reported metric: half-life (h)
Field format: number, assumed h, no unit text.

# input What half-life value was documented for this compound, COC(=O)[C@]1(O)C[C@@H]2O[C@@]1(C)n1c3ccccc3c3c4c(c5c6ccccc6n2c5c31)C(=O)NC4 [Compound K-252a, K-252a] ?
# output 1.05

====

Experiment: PK study in mice, single dermal administration
Format: in vivo
Details: male, Balb/c, mouse, plasma, topical; single dermal administration at same dosage (2 μmol/kg) and time point (3 hours); value±95% CI
Reported metric: concentration at 3 h (nM)
Field format: number, assumed nM, no unit text.

# input What concentration at 3 h value was documented for this compound, COC(=O)[C@]1(O)C[C@@H]2O[C@@]1(C)n1c3ccccc3c3c4c(c5c6ccccc6n2c5c31)C(=O)NC4 [Compound K-252a, K-252a] ?
# output 72.9
